# measured on: NOD1 (Homo sapiens)
# Sequence (Q9Y239 1-953): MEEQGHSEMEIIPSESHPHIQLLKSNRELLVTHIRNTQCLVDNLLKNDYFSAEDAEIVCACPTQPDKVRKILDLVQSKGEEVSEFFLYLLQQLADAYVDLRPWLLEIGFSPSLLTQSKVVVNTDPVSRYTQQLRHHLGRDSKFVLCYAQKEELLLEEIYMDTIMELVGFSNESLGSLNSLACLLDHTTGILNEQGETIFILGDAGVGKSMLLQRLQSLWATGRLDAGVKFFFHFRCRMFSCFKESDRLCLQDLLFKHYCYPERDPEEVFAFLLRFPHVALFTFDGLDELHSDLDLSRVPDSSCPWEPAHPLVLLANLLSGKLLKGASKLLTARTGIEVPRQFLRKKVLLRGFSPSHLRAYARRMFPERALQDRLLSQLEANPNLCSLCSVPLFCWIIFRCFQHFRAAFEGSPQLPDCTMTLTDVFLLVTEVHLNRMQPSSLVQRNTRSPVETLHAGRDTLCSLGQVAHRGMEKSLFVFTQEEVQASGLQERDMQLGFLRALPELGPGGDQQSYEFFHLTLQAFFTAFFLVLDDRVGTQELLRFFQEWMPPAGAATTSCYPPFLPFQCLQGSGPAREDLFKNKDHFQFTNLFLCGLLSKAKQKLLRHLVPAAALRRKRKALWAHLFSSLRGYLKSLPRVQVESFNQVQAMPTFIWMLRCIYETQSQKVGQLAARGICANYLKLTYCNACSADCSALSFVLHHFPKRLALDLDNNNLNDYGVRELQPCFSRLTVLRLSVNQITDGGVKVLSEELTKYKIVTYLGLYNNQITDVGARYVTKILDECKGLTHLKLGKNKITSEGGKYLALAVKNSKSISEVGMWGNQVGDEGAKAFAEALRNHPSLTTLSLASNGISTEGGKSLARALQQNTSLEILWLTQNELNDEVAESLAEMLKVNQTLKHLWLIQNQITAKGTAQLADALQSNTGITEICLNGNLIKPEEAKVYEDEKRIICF
# procedure details: Microscale thermophoresis (MST) binding to purified NOD1-GFP
# run parameters: Fig EV5B, purified NOD1; read-out: Kd (NOD1/ligand)
# Protocol: The lysates were incubated with 2 ml GFP‐Trap agarose at 4°C for 4 h. The agarose was collected with Poly‐Prep columns by gravity flow. […] To remove heat shock proteins, columns were further washed with 50 ml wash buffer III (50 mM Tris–HCl, pH 7.5, 150 mM NaCl, 5 mM MgCl2+, 1 mM ATP). To elute the proteins, the agarose was mixed with 2 ml elution buffer (100 mM Glycine, pH 2.5) for 1 min and the eluted proteins were immediately neutralized with 0.2 ml of 1 M Tris, pH 10.5.
metric: Kd

GET /values?readout=Kd&item= CCCCCCCCCCCCC/C=C/[C@@H](O)[C@@H](N)COP(=O)(O)O [S1P, sphingosine‐1‐phosphate]
2.29 µM
